Parameter log10 IC50: see the listing below.
# Test system: KB-3.1 (DSM ACC 158), human cervix carcinoma
# Type: cell-based
# Test Parameters: KB 3-1, 120 h, KB-3.1, incubation period of 5 days, MTT
Note: values are log10 of IC50 expressed in ng/mL.

Past entries and their recorded results:
>>> reported("C/C(=C\\c1csc(CN=[N+]=[N-])n1)[C@@H]1C[C@@H]2O[C@]2(C)CCC[C@H](C)[C@H](O)[C@@H](C)C(=O)C(C)(C)[C@@H](O)CC(=O)O1")
-0.30
>>> reported("C/C(=C\\c1csc(CCl)n1)[C@@H]1C[C@@H]2O[C@@H]2CCC[C@H](C)[C@H](O)[C@@H](C)C(=O)C(C)(C)[C@@H](O)CC(=O)O1")
1.78
>>> reported("C/C(=C\\c1csc(CN)n1)[C@@H]1C[C@@H]2O[C@]2(C)CCC[C@H](C)[C@H](O)[C@@H](C)C(=O)C(C)(C)[C@@H](O)CC(=O)O1")
-0.40
>>> reported("C=Cc1nc(/C=C(\\C)[C@@H]2C[C@@H]3O[C@@H]3CCC[C@H](C)[C@H](O)[C@@H](C)C(=O)C(C)(C)[C@@H](O)CC(=O)O2)cs1")
0.48

Here's the next entry for you.
Task: Observed log10 IC50 on KB-3.1 (DSM ACC 158), human cervix carcinoma for C/C(=C\c1csc(CN)n1)[C@@H]1C[C@@H]2O[C@@H]2CCC[C@H](C)[C@H](O)[C@@H](C)C(=O)C(C)(C)[C@@H](O)CC(=O)O1 , please.
Result: 0.60
